target: TG2 (transglutaminase-2, transglutaminase type 2) (Homo sapiens, UniProt P21980, K265S)
Sequence (P21980 whole entry K265S): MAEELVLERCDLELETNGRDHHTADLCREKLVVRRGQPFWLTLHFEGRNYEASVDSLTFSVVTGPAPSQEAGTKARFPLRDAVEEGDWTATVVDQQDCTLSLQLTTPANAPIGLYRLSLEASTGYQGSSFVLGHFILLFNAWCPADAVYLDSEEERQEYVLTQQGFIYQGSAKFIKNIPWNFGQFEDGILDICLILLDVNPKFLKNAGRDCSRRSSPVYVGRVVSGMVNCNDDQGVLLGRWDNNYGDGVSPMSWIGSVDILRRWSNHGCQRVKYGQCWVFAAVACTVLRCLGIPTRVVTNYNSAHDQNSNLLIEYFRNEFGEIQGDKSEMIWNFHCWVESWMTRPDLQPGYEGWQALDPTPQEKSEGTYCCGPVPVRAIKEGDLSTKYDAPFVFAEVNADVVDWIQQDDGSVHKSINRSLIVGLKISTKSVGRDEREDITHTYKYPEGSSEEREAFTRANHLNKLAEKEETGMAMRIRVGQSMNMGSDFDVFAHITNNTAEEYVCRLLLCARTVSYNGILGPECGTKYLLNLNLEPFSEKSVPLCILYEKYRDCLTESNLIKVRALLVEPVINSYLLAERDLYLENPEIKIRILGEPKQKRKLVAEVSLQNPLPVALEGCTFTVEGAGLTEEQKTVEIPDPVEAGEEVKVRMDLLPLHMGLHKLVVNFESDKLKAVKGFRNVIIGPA
measure: pIC50
Give bare numbers, as −log10 of the molar value.

Prompt: GET /values?readout=pIC50&item= Nc1nc2c(ncn2[C@@H]2O[C@H](COP(=O)(O)OP(=O)(O)OP(=O)(O)O)[C@@H](O)[C@H]2O)c(=O)[nH]1
Completion: 3.74

* * *

molecular target: TG2 (transglutaminase-2, transglutaminase type 2) (Homo sapiens, UniProt P21980, K202S/K205S); format: biochemical
Sequence (P21980 whole entry K202S/K205S): as the sequence (P21980 whole entry K265S) above, with K202S, K205S, S265K counted along it
measure: pIC50
One number for each entry, as −log10 of the molar value.

Prompt: GET /values?readout=pIC50&item= Nc1nc2c(ncn2[C@@H]2O[C@H](COP(=O)(O)OP(=O)(O)OP(=O)(O)O)[C@@H](O)[C@H]2O)c(=O)[nH]1
Completion: 3.84

Reference source: paper PMC3365763
